Target: Tyrosine-protein kinase TXK (Homo sapiens)
Sequence (P42681 whole entry): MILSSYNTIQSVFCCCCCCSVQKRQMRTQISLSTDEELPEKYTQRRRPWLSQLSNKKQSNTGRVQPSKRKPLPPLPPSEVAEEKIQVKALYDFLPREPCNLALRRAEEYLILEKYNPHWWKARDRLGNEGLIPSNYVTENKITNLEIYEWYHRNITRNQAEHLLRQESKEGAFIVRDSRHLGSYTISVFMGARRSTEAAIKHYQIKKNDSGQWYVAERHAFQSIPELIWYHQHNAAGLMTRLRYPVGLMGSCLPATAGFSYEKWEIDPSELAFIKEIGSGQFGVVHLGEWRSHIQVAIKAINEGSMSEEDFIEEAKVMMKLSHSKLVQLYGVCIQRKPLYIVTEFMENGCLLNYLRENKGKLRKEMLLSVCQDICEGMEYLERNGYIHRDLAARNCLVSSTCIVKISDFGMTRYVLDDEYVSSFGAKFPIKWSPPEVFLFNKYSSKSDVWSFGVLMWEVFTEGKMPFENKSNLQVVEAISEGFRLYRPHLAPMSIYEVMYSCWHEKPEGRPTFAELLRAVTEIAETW
Assay: Competitive binding affinity to human TXK in presence of immobilized ligand
pKd: −log10 of the molar value.

[
  {
    "CHEM SMILES": "C=CC(=O)Nc1cccc(-n2c(=O)cc(C)c3cnc(Nc4ccc(OCCN(C)C)cc4OC)nc32)c1",
    "pKd": 6.39
  }
]

###

Target: Tyrosine-protein kinase JAK1 (Homo sapiens)
Sequence (P23458 whole entry, the tested form may be a part): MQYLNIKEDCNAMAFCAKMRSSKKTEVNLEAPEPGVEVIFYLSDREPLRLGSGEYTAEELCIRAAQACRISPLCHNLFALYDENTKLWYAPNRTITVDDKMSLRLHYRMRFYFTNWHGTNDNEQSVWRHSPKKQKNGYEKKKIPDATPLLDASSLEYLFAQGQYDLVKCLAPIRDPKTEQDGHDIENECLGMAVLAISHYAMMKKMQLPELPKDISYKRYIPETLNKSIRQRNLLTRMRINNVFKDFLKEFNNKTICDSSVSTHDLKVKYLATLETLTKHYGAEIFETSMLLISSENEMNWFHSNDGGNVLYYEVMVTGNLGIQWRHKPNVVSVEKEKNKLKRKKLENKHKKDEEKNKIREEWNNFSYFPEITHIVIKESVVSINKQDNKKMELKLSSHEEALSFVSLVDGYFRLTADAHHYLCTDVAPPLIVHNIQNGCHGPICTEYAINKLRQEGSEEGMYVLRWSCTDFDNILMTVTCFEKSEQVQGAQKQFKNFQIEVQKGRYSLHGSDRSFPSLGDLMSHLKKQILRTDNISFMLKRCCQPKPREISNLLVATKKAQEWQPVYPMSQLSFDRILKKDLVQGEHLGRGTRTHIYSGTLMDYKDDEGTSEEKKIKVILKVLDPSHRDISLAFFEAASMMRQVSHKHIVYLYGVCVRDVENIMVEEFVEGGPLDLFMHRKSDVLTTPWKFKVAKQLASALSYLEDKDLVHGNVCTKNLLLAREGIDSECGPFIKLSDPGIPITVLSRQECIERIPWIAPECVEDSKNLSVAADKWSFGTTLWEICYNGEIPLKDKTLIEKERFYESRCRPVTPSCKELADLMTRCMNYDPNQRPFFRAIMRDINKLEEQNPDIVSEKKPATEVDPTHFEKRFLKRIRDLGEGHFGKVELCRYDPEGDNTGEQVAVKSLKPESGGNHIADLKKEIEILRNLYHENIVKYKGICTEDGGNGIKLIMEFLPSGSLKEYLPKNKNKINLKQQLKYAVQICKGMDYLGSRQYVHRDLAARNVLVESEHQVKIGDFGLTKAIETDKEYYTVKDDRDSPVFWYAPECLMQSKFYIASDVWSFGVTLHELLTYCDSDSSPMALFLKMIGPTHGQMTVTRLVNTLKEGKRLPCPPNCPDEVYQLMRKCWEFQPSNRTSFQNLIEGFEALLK
Test: Competitive binding affinity to human JAK1 JH2 domain pseudokinase in presence of immobilized ligand
pKd: −log10 of the molar value.

[
  {
    "CHEM SMILES": "C=CC(=O)Nc1cccc(-n2c(=O)cc(C)c3cnc(Nc4ccc(OCCN(C)C)cc4OC)nc32)c1",
    "pKd": 5.55
  }
]

###

Assay: AUC (0 to infinity) in athymic nude mouse xenografted with human NCI-H1975 cells at 30 mg/kg, po
Assay type: ADME, organism-based
Set-up: dose 30 mg/kg, route oral, time infinity
Settings: in vivo

[
  {
    "CHEM SMILES": "C=CC(=O)Nc1cccc(-n2c(=O)cc(C)c3cnc(Nc4ccc(OCCN(C)C)cc4OC)nc32)c1",
    "READOUT UNITS": "µM·h",
    "AUC(0-inf)": 0.33
  }
]

###

Assay: Oral bioavailability in Sprague-Dawley rat at 10 mg/kg
Type: ADME, organism-based
Details: Sprague-Dawley, in vivo
Listed next: entries and their corresponding bioavailability.

[
  {
    "CHEM SMILES": "C=CC(=O)Nc1cccc(-n2c(=O)cc(C)c3cnc(Nc4ccc(N5CCN(C)CC5)cc4OC)nc32)c1",
    "bioavailability [%]": 9.5
  },
  {
    "CHEM SMILES": "C=CC(=O)Nc1cccc(-n2c(=O)ccc3cnc(Nc4ccc(N5CCN(C)CC5)cc4OC)nc32)c1",
    "bioavailability [%]": 6.6
  },
  {
    "CHEM SMILES": "C=CC(=O)Nc1cccc(-n2c(=O)cc(C)c3cnc(Nc4ccc(OCCN(C)C)cc4OC)nc32)c1",
    "bioavailability [%]": 10
  }
]

###

Biological target: Tyrosine-protein kinase BTK (Homo sapiens)
Sequence (Q06187 whole entry): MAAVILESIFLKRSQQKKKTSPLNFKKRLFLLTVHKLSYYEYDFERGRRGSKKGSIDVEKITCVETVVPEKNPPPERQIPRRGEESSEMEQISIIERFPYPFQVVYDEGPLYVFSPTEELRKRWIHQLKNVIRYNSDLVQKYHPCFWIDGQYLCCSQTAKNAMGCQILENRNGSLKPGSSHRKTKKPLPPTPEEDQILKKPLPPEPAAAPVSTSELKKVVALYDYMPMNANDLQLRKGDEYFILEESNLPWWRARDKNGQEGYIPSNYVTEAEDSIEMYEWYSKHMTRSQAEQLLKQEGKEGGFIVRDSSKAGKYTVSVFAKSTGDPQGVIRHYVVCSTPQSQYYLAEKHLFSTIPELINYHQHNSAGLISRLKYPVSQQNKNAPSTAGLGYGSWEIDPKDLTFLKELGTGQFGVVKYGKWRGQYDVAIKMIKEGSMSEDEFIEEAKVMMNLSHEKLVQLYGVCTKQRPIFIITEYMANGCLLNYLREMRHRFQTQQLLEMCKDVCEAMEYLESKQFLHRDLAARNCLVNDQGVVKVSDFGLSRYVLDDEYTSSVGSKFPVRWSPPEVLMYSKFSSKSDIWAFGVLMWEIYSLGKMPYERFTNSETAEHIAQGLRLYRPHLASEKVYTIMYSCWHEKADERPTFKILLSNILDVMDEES
Test: Competitive binding affinity to human BTK in presence of immobilized ligand

[
  {
    "CHEM SMILES": "C=CC(=O)Nc1cccc(-n2c(=O)cc(C)c3cnc(Nc4ccc(OCCN(C)C)cc4OC)nc32)c1",
    "TESTED TARGET": "Tyrosine-protein kinase BTK (Homo sapiens)",
    "Kd / nM": 290
  }
]

###

Target: Epidermal growth factor receptor (Homo sapiens, UniProt P00533)
Sequence (P00533 whole entry): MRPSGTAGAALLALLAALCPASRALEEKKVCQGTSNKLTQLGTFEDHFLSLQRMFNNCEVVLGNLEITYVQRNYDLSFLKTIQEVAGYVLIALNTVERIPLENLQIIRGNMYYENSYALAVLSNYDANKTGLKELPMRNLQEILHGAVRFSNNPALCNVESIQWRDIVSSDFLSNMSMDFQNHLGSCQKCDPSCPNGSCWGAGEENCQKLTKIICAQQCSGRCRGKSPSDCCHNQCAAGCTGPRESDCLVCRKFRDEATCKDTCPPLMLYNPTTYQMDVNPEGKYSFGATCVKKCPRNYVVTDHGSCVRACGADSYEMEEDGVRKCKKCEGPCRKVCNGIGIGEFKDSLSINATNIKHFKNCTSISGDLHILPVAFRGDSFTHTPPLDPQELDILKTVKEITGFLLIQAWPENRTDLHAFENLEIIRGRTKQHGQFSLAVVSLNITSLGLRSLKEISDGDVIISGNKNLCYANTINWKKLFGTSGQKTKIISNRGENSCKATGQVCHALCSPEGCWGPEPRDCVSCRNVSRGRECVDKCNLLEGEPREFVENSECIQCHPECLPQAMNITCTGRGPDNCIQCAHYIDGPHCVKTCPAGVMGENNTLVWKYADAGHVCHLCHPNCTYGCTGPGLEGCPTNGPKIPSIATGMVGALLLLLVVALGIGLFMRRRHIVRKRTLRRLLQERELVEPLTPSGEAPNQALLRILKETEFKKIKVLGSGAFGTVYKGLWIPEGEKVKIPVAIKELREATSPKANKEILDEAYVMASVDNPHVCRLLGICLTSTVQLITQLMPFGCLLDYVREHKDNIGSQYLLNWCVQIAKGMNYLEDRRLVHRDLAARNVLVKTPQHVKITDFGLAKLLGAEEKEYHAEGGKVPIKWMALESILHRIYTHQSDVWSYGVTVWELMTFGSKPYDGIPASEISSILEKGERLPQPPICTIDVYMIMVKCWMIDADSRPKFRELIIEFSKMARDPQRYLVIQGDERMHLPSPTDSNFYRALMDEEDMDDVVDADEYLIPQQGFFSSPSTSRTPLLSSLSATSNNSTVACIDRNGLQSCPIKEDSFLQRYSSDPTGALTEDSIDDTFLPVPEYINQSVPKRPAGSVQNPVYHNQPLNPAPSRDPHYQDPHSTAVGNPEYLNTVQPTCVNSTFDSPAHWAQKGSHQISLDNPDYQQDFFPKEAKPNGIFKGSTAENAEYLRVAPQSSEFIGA
Experiment: Binding affinity to wild type EGFR (unknown origin)

[
  {
    "CHEM SMILES": "C=CC(=O)Nc1cccc(-n2c3nc(Nc4ccc(N5CCC(N(C)C)CC5)cc4OC)ncc3c(=O)n3ccnc23)c1",
    "Kd / nM": 310
  }
]

###

The following compounds are listed with their measured Vd values.
Assay: Volume of distribution at steady state in Sprague-Dawley rat at 1 mg/kg, iv
Format: ADME, organism-based
Conditions: in vivo, read-out: Vdss

[
  {
    "CHEM SMILES": "C=CC(=O)Nc1cccc(-n2c(=O)ccc3cnc(Nc4ccc(N5CCN(C)CC5)cc4OC)nc32)c1",
    "READOUT UNITS": "L/kg",
    "Vd": 19
  },
  {
    "CHEM SMILES": "C=CC(=O)Nc1cccc(-n2c(=O)cc(C)c3cnc(Nc4ccc(OCCN(C)C)cc4OC)nc32)c1",
    "READOUT UNITS": "L/kg",
    "Vd": 22
  },
  {
    "CHEM SMILES": "C=CC(=O)Nc1cccc(-n2c(=O)cc(C)c3cnc(Nc4ccc(N5CCN(C)CC5)cc4OC)nc32)c1",
    "READOUT UNITS": "L/kg",
    "Vd": 7.8
  },
  {
    "CHEM SMILES": "C=CC(=O)Nc1cccc(-n2c(=O)cc(C)c3cnc(Nc4ccc(N(C)CCN(C)C)cc4OC)nc32)c1",
    "READOUT UNITS": "L/kg",
    "Vd": 20
  }
]

###

Target: Epidermal growth factor receptor (Homo sapiens)
Assay: Inhibition of wild type EGFR phosphorylation in human A431 cells after 60 mins by mesoscale multiplex assay
Each entry below carries its reported IC50.

[
  {
    "CHEM SMILES": "C=CC(=O)Nc1cccc(-n2c(=O)cc(C)c3cnc(Nc4ccc(N5CCN(C)CC5)cc4OC)nc32)c1",
    "TESTED TARGET": "Epidermal growth factor receptor (Homo sapiens)",
    "READOUT UNITS": "nM",
    "IC50": 386
  },
  {
    "CHEM SMILES": "C=CC(=O)Nc1cccc(-n2c(=O)cc(C)c3cnc(Nc4ccc(OCCN(C)C)cc4OC)nc32)c1",
    "TESTED TARGET": "Epidermal growth factor receptor (Homo sapiens)",
    "READOUT UNITS": "nM",
    "IC50": 1050
  },
  {
    "CHEM SMILES": "C=CC(=O)Nc1cccc(-n2c(=O)cc(C)c3cnc(Nc4ccc(N(C)CCN(C)C)cc4OC)nc32)c1",
    "TESTED TARGET": "Epidermal growth factor receptor (Homo sapiens)",
    "READOUT UNITS": "nM",
    "IC50": 521
  },
  {
    "CHEM SMILES": "C=CC(=O)Nc1cccc(-n2c(=O)ccc3cnc(Nc4ccc(N5CCN(C)CC5)cc4OC)nc32)c1",
    "TESTED TARGET": "Epidermal growth factor receptor (Homo sapiens)",
    "READOUT UNITS": "nM",
    "IC50": 50
  }
]

###

Biological target: Epidermal growth factor receptor (Homo sapiens)
Experiment: Competitive binding affinity to human wild type EGFR in presence of immobilized ligand
EXPERIMENTAL READOUT: Kd (nM)

[
  {
    "CHEM SMILES": "C=CC(=O)Nc1cccc(-n2c(=O)cc(C)c3cnc(Nc4ccc(OCCN(C)C)cc4OC)nc32)c1",
    "VALUE REPORTED": 220
  }
]

###

System: rat MDR1 (P-gp)
Assay: Efflux ratio of permeability across pig LLC-PK1 cells transfected with rat MDR1 gene
Type: ADME, cell-based, Sus scrofa
EXPERIMENTAL READOUT: efflux ratio

[
  {
    "CHEM SMILES": "C=CC(=O)Nc1cccc(-n2c(=O)cc(C)c3cnc(Nc4ccc(OCCN(C)C)cc4OC)nc32)c1",
    "TESTED TARGET": "rat MDR1 (P-gp)",
    "VALUE REPORTED": "> 37"
  }
]

These data points were gathered from ChEMBL document CHEMBL3632511.
